# Test system: Staphylococcus lugdunensis
# Protocol notes: Antibacterial activity against Staphylococcus lugdunensis isolated from patient with diabetic foot infection after 18 to 24 hrs by broth microdilution method
# Type: functional
Readout type: MIC90 (µg/mL)
// return numeric value only (unit: µg/mL, not printed)

C[C@@H](O)[C@H]1C(=O)N2C(C(=O)O)=C(S[C@@H]3CN[C@H](CNS(N)(=O)=O)C3)[C@H](C)[C@H]12 [DORIPENEM]    0.125
C[C@@H](O)[C@H]1C(=O)N2C(C(=O)O)=C(S[C@@H]3CN[C@H](C(=O)N(C)C)C3)[C@H](C)[C@H]12 [MEROPENEM]    0.5
C[C@@H](O)[C@H]1C(=O)N2C(C(=O)O)=C(S[C@@H]3CN[C@H](C(=O)Nc4cccc(C(=O)O)c4)C3)[C@H](C)[C@H]12 [ERTAPENEM]    1

Kindly review the next compound as well.
Kindly note: Staphylococcus lugdunensis, C[C@@H](O)[C@H]1C(=O)N2C(C(=O)O)=C(SCCNC=N)C[C@H]12 [IMIPENEM ANHYDROUS] , MIC90 value reported: 0.06

---

# Test system: Anaerococcus tetradius
# Protocol notes: Antibacterial activity against Anaerococcus tetradius isolated from patient with diabetic foot infection after 44 to 48 hrs by agar dilution method
# Type: functional
Readout type: MIC50 (µg/mL)
State just the number; it will be interpreted in µg/mL.

Examples with their reported MIC50 follow.
C[C@@H](O)[C@H]1C(=O)N2C(C(=O)O)=C(S[C@@H]3CN[C@H](C(=O)N(C)C)C3)[C@H](C)[C@H]12    0.03
CCC[C@@H]1C[C@@H](C(=O)N[C@@H]([C@H]2O[C@H](SC)[C@H](O)[C@@H](O)[C@H]2O)[C@H](C)Cl)N(C)C1    0.125

Just so you know, measured MIC50 for Cc1ncc([N+](=O)[O-])n1CCO came out at 0.5

compound C[C@@H](O)[C@H]1C(=O)N2C(C(=O)O)=C(S[C@@H]3CN[C@H](C(=O)Nc4cccc(C(=O)O)c4)C3)[C@H](C)[C@H]12 , MIC50 observed: 0.125

---

# Test system: Staphylococcus haemolyticus
# Protocol notes: Antibacterial activity against Staphylococcus haemolyticus isolated from patient with diabetic foot infection after 18 to 24 hrs by broth microdilution method
# Assay type: functional
Here the recorded MIC90 is given for each entry.
Express it in µg/mL; write the number only.

CCC[C@@H]1C[C@@H](C(=O)N[C@@H]([C@H]2O[C@H](SC)[C@H](O)[C@@H](O)[C@H]2O)[C@H](C)Cl)N(C)C1    8
C[C@@H](O)[C@H]1C(=O)N2C(C(=O)O)=C(SCCNC=N)C[C@H]12 [IMIPENEM ANHYDROUS]    16

For C[C@@H](O)[C@H]1C(=O)N2C(C(=O)O)=C(S[C@@H]3CN[C@H](C(=O)N(C)C)C3)[C@H](C)[C@H]12 the compound record lists MIC90 as 32

Just so you know, measured MIC90 for C[C@@H](O)[C@H]1C(=O)N2C(C(=O)O)=C(S[C@@H]3CN[C@H](CNS(N)(=O)=O)C3)[C@H](C)[C@H]12 came out at 16

---

# Test system: Staphylococcus aureus
# Protocol notes: Antibacterial activity against methicillin-sensitive Staphylococcus aureus isolated from patient with diabetic foot infection after 18 to 24 hrs by broth microdilution method
# Assay type: functional
Readout type: MIC90
Please make sure the unit comes right after the number.

Example entries begin here.
C[C@@H](O)[C@H]1C(=O)N2C(C(=O)O)=C(S[C@@H]3CN[C@H](CNS(N)(=O)=O)C3)[C@H](C)[C@H]12    0.03 µg/mL
C[C@@H](O)[C@H]1C(=O)N2C(C(=O)O)=C(S[C@@H]3CN[C@H](C(=O)Nc4cccc(C(=O)O)c4)C3)[C@H](C)[C@H]12    0.25 µg/mL
C[C@@H](O)[C@H]1C(=O)N2C(C(=O)O)=C(S[C@@H]3CN[C@H](C(=O)N(C)C)C3)[C@H](C)[C@H]12    0.125 µg/mL

Entry C[C@@H](O)[C@H]1C(=O)N2C(C(=O)O)=C(SCCNC=N)C[C@H]12 [IMIPENEM ANHYDROUS] , MIC90 reported as 0.03 µg/mL

The recorded MIC90 for entry CCC[C@@H]1C[C@@H](C(=O)N[C@@H]([C@H]2O[C@H](SC)[C@H](O)[C@@H](O)[C@H]2O)[C@H](C)Cl)N(C)C1 equals 0.25 µg/mL
